# System under test: CYP3A4 (Homo sapiens)
# Sequence (P08684 whole entry): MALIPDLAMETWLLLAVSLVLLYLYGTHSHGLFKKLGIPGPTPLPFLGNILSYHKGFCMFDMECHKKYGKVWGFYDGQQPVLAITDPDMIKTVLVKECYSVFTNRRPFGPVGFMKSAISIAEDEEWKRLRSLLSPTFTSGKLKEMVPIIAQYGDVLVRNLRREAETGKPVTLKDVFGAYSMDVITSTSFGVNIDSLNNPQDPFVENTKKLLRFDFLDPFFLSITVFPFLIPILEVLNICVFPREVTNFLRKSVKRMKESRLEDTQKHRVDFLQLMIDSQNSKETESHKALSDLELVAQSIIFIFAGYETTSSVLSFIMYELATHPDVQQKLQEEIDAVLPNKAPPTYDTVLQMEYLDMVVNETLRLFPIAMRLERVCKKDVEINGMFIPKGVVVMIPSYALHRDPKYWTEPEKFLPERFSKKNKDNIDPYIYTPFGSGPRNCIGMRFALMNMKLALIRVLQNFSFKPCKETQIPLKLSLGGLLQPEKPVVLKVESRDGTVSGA
# Assay info: Determination of IC50 against CYP3A4 by measurement of inhibition of midazolam metabolism (human liver microsomes, 1-hydroxymidazolam by LC-MS/MS)
# Format: biochemical
# Parameters: 0.1 mg/mL human liver microsomes
# Experimental setup: 2 μM midazolam, 0.1 mg/mL human liver microsomes
Readout name: IC50 (nM)
Enter your answer as a number in nM; do not include the unit.

Example molecules with recorded IC50:
Cc1cncc(NS(=O)(=O)c2ccccc2C(=O)NCCc2ccccc2OC(F)(F)F)c1 [Example 225]
7
COc1cncc(NS(=O)(=O)c2ccccc2C(=O)NCc2ccc(Cl)cc2C)c1 [Example 216]
5
COc1cncc(NS(=O)(=O)c2ccccc2C(=O)NCCOC(C)C)c1 [Example 241]
77
Cc1ccncc1NS(=O)(=O)c1ccccc1C(=O)NC(C)(C)C [Example 178]
70

Please find the next molecule below.
## Input # IC50 lookup, item Cc1cncc(NS(=O)(=O)c2ccccc2C(=O)NCc2ccc(S(C)(=O)=O)cc2)c1 [Example 159]
## Output 64

----------
pIC50 values for the compounds below.
# System under test: CYP3A4 (Homo sapiens)
# Assay info: Determination of IC50 against CYP3A4 by measurement of inhibition of midazolam metabolism (human liver microsomes, 1-hydroxymidazolam by LC-MS/MS)
# Assay type: biochemical
# Set-up: 0.1 mg/mL human liver microsomes
# Experimental setup: 2 μM midazolam, 0.1 mg/mL human liver microsomes
# Method: 3. Determination of IC50 Against CYP3A4 by Measurement of Inhibition of Midazolam Metabolism This assay was performed using a standard 96 well plate design. […] Quantitation of metabolite peak area ratio against internal standard is determined by LC-MS/MS analysis. The production of 1-hydroxymidazolam from midazolam metabolism is determined after incubation for eight minutes by comparison to a standard curve generated for the metabolite. […]
Interpret pIC50 as the negative base-10 log of the concentration measured in mol/L.

Sample answers from the record:
COc1cncc(NS(=O)(=O)c2ccc(F)cc2C(=O)N(C)C(C)C)c1 [Example 304]
6.92
Cc1cncc(NS(=O)(=O)c2ccccc2C(=O)N(C)Cc2cccc(F)c2)c1 [Example 349]
7.96
CN(Cc1ccc(C(F)(F)F)cc1)C(=O)c1ccccc1S(=O)(=O)Nc1cccnc1 [Example 140]
7.25

## Input # get_value(readout= pIC50, system= CYP3A4 (Homo sapiens)) for CCOc1cncc(NS(=O)(=O)c2ccccc2C(=O)NCC2CC2)c1 [Example 293]
## Output 7.09

## Input Short answer please: pIC50, CYP3A4 (Homo sapiens), entry CCOc1ccncc1NS(=O)(=O)c1ccccc1C(=O)NCc1ccc(F)c(C(F)(F)F)c1 [Example 250]
## Output 8.00

## Input For CYP3A4 (Homo sapiens), provide pIC50 of COc1cncc(NS(=O)(=O)c2ccccc2C(=O)N(C)CCOc2ccccc2)c1 [Example 173] please.
## Output 7.80

## Input Give CYP3A4 (Homo sapiens) pIC50 for Cc1cncc(NS(=O)(=O)c2ccccc2C(=O)NCCOc2ccccc2)c1 [Example 229]
## Output 7.80

## Input Given the entry CCOc1ccncc1NS(=O)(=O)c1ccccc1C(=O)N[C@H](C)C(C)C [Example 110] , what pIC50 was observed with CYP3A4 (Homo sapiens)?
## Output 7.59

## Input Hi! What's the reported pIC50 for CCOc1cncc(NS(=O)(=O)c2ccccc2C(=O)NC2CCCC2)c1 [Example 287] on CYP3A4 (Homo sapiens)?
## Output 7.37

## Input // lookup pIC50 | system=CYP3A4 (Homo sapiens) | key= COc1cncc(NS(=O)(=O)c2ccc(OCCCN(C)C)cc2C(=O)NCc2ccc(F)cc2)c1 [Example 266]
## Output 7.27

## Input Notebook: pull reported pIC50 for CYP3A4 (Homo sapiens), entry COc1ccc(CNC(=O)c2ccccc2S(=O)(=O)Nc2cncc(OC)c2)cc1 [Example 373]
## Output 7.43

## Input Field: pIC50 (CYP3A4 (Homo sapiens)). Entry: COc1cncc(NS(=O)(=O)c2ccccc2C(=O)N(C)Cc2ccc(F)c(F)c2)c1 [Example 285]
## Output 7.72

## Input Look up pIC50 with CYP3A4 (Homo sapiens) for this compound: COc1cncc(NS(=O)(=O)c2ccccc2C(=O)NCc2ccc(F)c(Cl)c2)c1 [Example 262]
## Output 8.30

meta.source: patent US7868026B2
